meta.source: a melting point compilation (Tetko et al.; mined from patent text by program, amines drawn as free bases though some values may be those of a salt)

Known melting point of a selection of molecules

O=C(NC1CCC(CCN2CCC(c3cccc4c3CCO4)CC2)CC1)c1ccc(N2CCS(=O)(=O)CC2)cc1 (stereo unspecified): 282 °C
CC(=O)Cc1nc2ccccc2c(=O)o1: 120 to 122 °C
CCOCCOc1cccc2oc(-c3ccccc3)cc(=O)c12: 94 to 96 °C
CCC1(C)CC(=O)C(C(=O)Nc2ccc(Cl)c(C(F)(F)F)c2)C(=O)C1 (stereo unspecified): 87 to 88 °C
O=C1C=C(Oc2ccc(C3CCCC3)cc2)C(O)O1 (stereo unspecified): 101 to 103 °C

For this molecule ( `COc1ccc2c(c1)C(CCNC(=O)C(F)(F)F)=C(Cc1ccccc1)C2` ), measured melting point is 126 to 128 °C

For this molecule ( `COC(=O)CCC(=O)c1ccc(-c2ccc(OC)cc2)cc1` ), measured melting point is 96 to 100 °C

For this molecule ( COc1cccc2c1CCCC2CN=[N+]=[N-] (stereo unspecified) ), measured melting point is 65 to 66 °C
